Method Summary: Tissue distribution after single oral PU-48 SNEDDS
Type: in vivo
Study Conditions: kidney; 24 h, rat, oral PU-48 SNEDDS 12 mg/kg; read-out: Concentration of PU-48 in kidney
Measured Attribute: concentration at 24 h (ng/g)
Numeric only. Scale: ng/g

Given COC(=O)c1sc2nc3ccc(OC)cc3cc2c1N , state its recorded concentration at 24 h.
5.3

---

Method Summary: Tissue distribution after single oral PU-48 SNEDDS
Assay type: in vivo
Study Conditions: spleen; 6 h, rat, oral PU-48 SNEDDS 12 mg/kg; read-out: Concentration of PU-48 in spleen
Measured Attribute: concentration at 6 h (ng/g)
Numeric only. Scale: ng/g

Given COC(=O)c1sc2nc3ccc(OC)cc3cc2c1N [PU-48] , state its recorded concentration at 6 h.
15.2

The values you see were collected from paper PMC6160999.
